The measurements presented in this section are drawn from patent US9744148B2.

SYSTEM: Active human KLK7 (SCCE) (Homo sapiens (Human), UniProt P49862)
Sequence (P49862 30-253): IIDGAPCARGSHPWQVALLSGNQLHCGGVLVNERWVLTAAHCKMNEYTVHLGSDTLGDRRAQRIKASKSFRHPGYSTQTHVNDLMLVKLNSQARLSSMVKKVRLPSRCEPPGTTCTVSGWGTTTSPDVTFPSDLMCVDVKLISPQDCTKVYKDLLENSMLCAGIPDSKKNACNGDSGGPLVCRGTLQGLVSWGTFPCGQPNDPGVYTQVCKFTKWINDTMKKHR
pIC50: −log10 of the molar value.
// label = rule met if pIC50 is not less than 6, otherwise rule not met

# example entries with known answers
# COMPOUND, SYSTEM, LABEL_VALUE
records = [
    ("CCCC(OC(=O)C(c1ccccc1)c1ccccc1)C(=O)Nc1cc(C)on1 (stereo not drawn)", "Active human KLK7 (SCCE) (Homo sapiens (Human), UniProt P49862)", "rule met"),
    ("Cc1cc(NC(=O)COC(=O)Cc2ccc(Cl)cc2)no1 [Compound 73]", "Active human KLK7 (SCCE) (Homo sapiens (Human), UniProt P49862)", "rule not met"),
    ("CC(OC(=O)C(NC(=O)c1ccccc1)c1ccccc1)C(=O)NCc1ccccc1 (stereo not drawn)", "Active human KLK7 (SCCE) (Homo sapiens (Human), UniProt P49862)", "rule not met"),
    ("COc1ccc(NC(=O)C(OC(=O)Cc2ccc(Cl)cc2)c2ccccc2)cc1 (stereo not drawn)", "Active human KLK7 (SCCE) (Homo sapiens (Human), UniProt P49862)", "rule met"),
    ("O=C(Cc1ccc(Cl)cc1)OC(C(=O)Nc1ccc(F)cc1)c1ccccc1 (stereo not drawn)", "Active human KLK7 (SCCE) (Homo sapiens (Human), UniProt P49862)", "rule met"),
]

Request: Dear colleague, could you confirm whether O=C(COC(=O)C(c1ccccc1)c1ccccc1)Nc1ccccc1 has pIC50 at or above 6?
Result: rule not met

Request: Please tell me: is the compound O=C(COC(=O)C(NC(=O)c1ccccc1)c1ccccc1)Nc1ccccc1 (stereo not drawn) at or over 6 in terms of pIC50?
Result: rule not met

Request: Determine whether this compound has pIC50 no lower than 6: CCC(OC(=O)CCC1CCCC1)C(=O)Nc1ccc(F)cc1 (stereo not drawn)
Result: rule met

Request: Form field: pIC50 at least 6? Entry: COc1ccc(NC(=O)C(C)OC(=O)Cc2ccc(Cl)cc2)cc1 (stereo not drawn)
Result: rule met

Request: In plain terms: is recorded pIC50 at least 6 for CCC(OC(=O)Cc1ccc(OC)cc1)C(=O)Nc1cc(C)on1 (stereo not drawn) ?
Result: rule met

Request: Quick check, pIC50 >= 6? CCC(OC(=O)Cc1ccc(OC)cc1)C(=O)Nc1ccccc1 (stereo not drawn)
Result: rule met

====

Here's what we have: log10(IC50) numbers for Active human KLK7 (SCCE) (Homo sapiens (Human)).
Could you please treat all values as log10 of IC50 in nM?

Some compounds with recorded log10(IC50):
# COMPOUND, VALUE
data = [
    ("CCC(OC(=O)C(NC(=O)c1ccccc1)c1ccccc1)C(=O)Nc1cc(C)on1 (stereo not shown)", 2.82),
    ("COc1ccc(NC(=O)C(C)OC(=O)C(c2ccccc2)c2ccccc2)cc1 (stereo not shown)", 3.07),
]

For each of the items listed, what is its log10(IC50)?
1. Cc1cc(NC(=O)COC(=O)CCC2CCCC2)no1
2. CCC(OC(=O)CCC1CCCC1)C(=O)Nc1ccc(OC)cc1 (stereo not shown)
3. CCC(OC(=O)Cc1ccc(Cl)cc1)C(=O)Nc1ccccc1 (stereo not shown)

Result:
[3.43, 2.18, 2.18]

Hello, I would appreciate it if you could give log10(IC50) for each entry below.
1. Cc1cc(NC(=O)C(OC(=O)CCC2CCCC2)c2ccccc2)no1 (stereo not shown)
2. CCC(OC(=O)Cc1ccc2c(c1)OCO2)C(=O)Nc1cc(C)on1 (stereo not shown)
3. CCC(OC(=O)Cc1ccc(OC)cc1)C(=O)Nc1ccc(F)cc1 (stereo not shown)
4. COc1ccc(CC(=O)OC(C(=O)Nc2cc(C)on2)C(C)C)cc1 (stereo not shown)

Result:
1. 2.36
2. 2.51
3. 2.56
4. 3.80

Parameters: items (list). Returns: log10(IC50) for each item.
1. Cc1cc(NC(=O)COC(=O)C(c2ccccc2)c2ccccc2)no1 [Compound 86]
2. O=C(COC(=O)C(c1ccccc1)c1ccccc1)Nc1ccc(F)cc1
3. COc1ccc(NC(=O)C(OC(=O)Cc2ccc(Cl)cc2)C(C)C)cc1 (stereo not shown)
4. Cc1cc(NC(=O)C(OC(=O)C(NC(=O)c2ccccc2)c2ccccc2)c2ccccc2)no1 (stereo not shown)

Result:
[3.82, 3.93, 3.58, 2.89]

Each compound below has a recorded value; state its log10(IC50).
1. Cc1cc(NC(=O)COC(=O)C(c2ccccc2)c2ccccc2)no1 [Compound 80]
2. Cc1cc(NC(=O)C(OC(=O)CCC2CCCC2)C(C)C)no1 (stereo not shown)

Result:
[3.67, 3.44]
